biological target: hSTING-R232 (Homo sapiens, UniProt Q86WV6, H232R); construct: recombinant mouse or human STING protein (aa140-379); 6xHis-SUMO elsewhere) (cleaved yes); made in house; assay: STING Differential Scanning Fluorimetry (DSF) assay, human; assay type: binding; conditions: human STING R232-WT, 5 μM protein
Sequence (Q86WV6 140-379 H232R): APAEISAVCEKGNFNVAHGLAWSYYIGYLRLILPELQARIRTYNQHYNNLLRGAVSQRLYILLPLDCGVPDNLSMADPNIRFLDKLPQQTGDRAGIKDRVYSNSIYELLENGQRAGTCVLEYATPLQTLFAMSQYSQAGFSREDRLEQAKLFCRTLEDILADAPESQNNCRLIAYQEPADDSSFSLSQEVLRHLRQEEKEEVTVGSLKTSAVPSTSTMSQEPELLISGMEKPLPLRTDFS
parameterMeasured: WT_DSF_hSWAT Tm Shift (° C.)

# count of solved cases: 5
compound=CCOc1c(Cl)ccc2c(=O)c3ccc(N(CCOC)C4CC4)nc3n(CC(=O)O)c12 parametermeasured="WT_DSF_hSWAT Tm Shift (° C.)" measvalue="D (“D” > 7° C.)"
compound=CCOc1c(Cl)ccc2c(=O)c3ccc(N(CCOC)CC(F)F)nc3n(CC(=O)O)c12 parametermeasured="WT_DSF_hSWAT Tm Shift (° C.)" measvalue="C (“C” = 2-7° C.)"
compound=CO[C@H]1C[C@@H](N(CC2CC2)c2ccc3c(=O)c4ccc(Cl)c(SC)c4n(CC(=O)O)c3n2)C1 parametermeasured="WT_DSF_hSWAT Tm Shift (° C.)" measvalue="D (“D” > 7° C.)"
compound=CCOc1nc2c(cc1Cl)c(=O)c1ccc(Cl)c(N(C)C)c1n2CC(=O)O parametermeasured="WT_DSF_hSWAT Tm Shift (° C.)" measvalue="C (“C” = 2-7° C.)"
compound=CSc1c(Cl)ccc2c(=O)c3ccc(NCC4COC4)nc3n(CC(=O)O)c12 parametermeasured="WT_DSF_hSWAT Tm Shift (° C.)" measvalue="D (“D” > 7° C.)"

Record WT_DSF_hSWAT Tm Shift (° C.) per entry; entries follow.
1. CSc1c(Cl)ccc2c(=O)c3ccc(C=C4COC4)nc3n(CC(=O)O)c12
2. CSc1c(Cl)ccc2c(=O)c3ccc(C(C)=O)nc3n(CC(=O)O)c12
3. CN(C)c1c(Cl)ccc2c(=O)c3ccc(N(C)CCn4ccnc4)nc3n(CC(=O)O)c12
4. CSc1c(Cl)ccc2c(=O)c3ccc(N(C)C4CC(OC(F)F)C4)nc3n(CC(=O)O)c12 (stereo not drawn)
5. CSc1c(Cl)ccc2c(=O)c3ccc(C(C)(C)C)nc3n(CC(=O)O)c12

Ans:
D (“D” > 7° C.)
C (“C” = 2-7° C.)
D (“D” > 7° C.)
D (“D” > 7° C.)
D (“D” > 7° C.)

Record WT_DSF_hSWAT Tm Shift (° C.) per entry; entries follow.
1. COc1c(Cl)ccc2c(=O)c3ccc(C(C)C)nc3n(CC(=O)O)c12
2. CN(C)c1c(Cl)ccc2c(=O)c3ccc(C(C)(C)C(N)=O)nc3n(CC(=O)O)c12

Ans:
D (“D” > 7° C.)
C (“C” = 2-7° C.)

Record WT_DSF_hSWAT Tm Shift (° C.) per entry; entries follow.
1. Cc1ccc2c(=O)c3c(O)cc(Cl)c(N(C)C)c3n(CC(=O)O)c2n1
2. CCOc1c(Cl)ccc2c(=O)c3ccc(C)nc3n(CC(=O)O)c12

Ans:
1. C (“C” = 2-7° C.)
2. C (“C” = 2-7° C.)

Taken from patent US20220251079A1.
